tested on: CYP3A4; assay: Metabolic stability assessed as compound remaining at 1 uM after 1 hr by LC-MS analysis in presence of human CYP3A4 and NADPH; format: ADME; conditions: human CYP3A4 enzyme, read-out: Stability
quantity-measured: remaining at 1 h, 1 µM

[Q] Data request, read-out remaining at 1 h, 1 µM, for `CCCCCCC(C)(C)c1cc(O)cc(OCCCCCCCCCCC(=O)OC(CO)CO)c1`
[A] 24%

###

target: Cannabinoid receptor 2 (Homo sapiens)
So I've got a bunch of compounds here, and I need their Ki values.
The reply should contain only the number, in µM.

[Q] Data request, read-out Ki, for CCCCCCc1ccc(O)cc1OCCCCCCCCCCC(=O)OCC(O)CO (configuration not stated)
[A] 4.82

[Q] Note, next up: `CCCCCCc1ccc(OCCCCCCCCCCC(=O)OC(CO)CO)cc1O`
[A] 7.87

[Q] Note, next up: `CCCCCCC(C)(C)c1cc(O)cc(OCCCCCCCCCCC(=O)OC(CO)CO)c1`
[A] 0.79

[Q] Note, next up: CCCCCc1cc(O)cc(OCCCCCCCCCCC(=O)OCC(O)CO)c1 (configuration not stated)
[A] 7.91

[Q] Note, next up: `CCCCCc1cc(O)cc(OCCCCCCCC(=O)OC(CO)CO)c1`
[A] 7.87

[Q] Note, next up: `CCCCCCC(C)(C)c1cc(O)cc(OCCCCCCCCCCCC(=O)OC(CO)CO)c1`
[A] 0.8

###

biological target: Cannabinoid receptor 1 (Homo sapiens, UniProt P21554)
Sequence (P21554 whole entry): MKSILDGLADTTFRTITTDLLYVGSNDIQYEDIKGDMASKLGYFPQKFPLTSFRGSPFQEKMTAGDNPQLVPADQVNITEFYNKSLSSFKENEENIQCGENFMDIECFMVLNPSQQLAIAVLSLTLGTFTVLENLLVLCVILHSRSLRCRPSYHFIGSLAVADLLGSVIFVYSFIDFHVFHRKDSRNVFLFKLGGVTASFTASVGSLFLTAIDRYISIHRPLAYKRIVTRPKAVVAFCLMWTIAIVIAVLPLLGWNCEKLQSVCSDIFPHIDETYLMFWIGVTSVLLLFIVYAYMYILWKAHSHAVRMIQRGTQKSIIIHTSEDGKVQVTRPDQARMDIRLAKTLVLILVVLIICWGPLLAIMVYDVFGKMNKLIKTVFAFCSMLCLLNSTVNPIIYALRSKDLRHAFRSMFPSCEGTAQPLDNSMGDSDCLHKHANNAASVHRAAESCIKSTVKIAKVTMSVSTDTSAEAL
So I've got a bunch of molecules here, and I need their pKi values.
Note: pKi values are expressed as the negative base-10 logarithm of concentration in M.

[Q] Data request, read-out pKi, for `CCCCCCC(C)(C)c1cc(O)cc(OCCCCCCCCCCCCOC(CO)CO)c1`
[A] 5.98

[Q] Note, next up: `CCCCCc1cc(O)cc(OCCCCCCCCCCC(=O)OC(CO)CO)c1`
[A] 5.25

[Q] Note, next up: `CCCCCCC(C)(C)c1cc(O)cc(OCCCCCCCCCCCC(=O)OC(CO)CO)c1`
[A] 5.57

[Q] Note, next up: `CCCCCCc1ccc(O)cc1OCCCCCCCCCCC(=O)OC(CO)CO`
[A] 7.22

###

As a worked illustration, we turn to Ki data collected for Cannabinoid receptor 2 (Homo sapiens, UniProt P34972).
The reply should contain only the number, in nM.

[Q] Notebook: pull reported Ki for Cannabinoid receptor 2 (Homo sapiens, UniProt P34972), entry `CCCCCCc1ccc(OCCCCCCOC(CO)CO)cc1O`
[A] 1130

[Q] Note, next up: `CCCCCCc1ccc(O)cc1OCCCCCCCC(=O)OC(CO)CO`
[A] 1800

[Q] Note, next up: `CCCCCCC(C)(C)c1cc(O)cc(OCCCCCCCCCCOC(CO)CO)c1`
[A] 380

[Q] Note, next up: `CCCCCc1cc(O)cc(OCCCCCCOC(CO)CO)c1`
[A] 910

[Q] Note, next up: `CCCCCCC(C)(C)c1cc(O)cc(OCCCCCCCCOC(CO)CO)c1`
[A] 110

###

biological target: Cannabinoid receptor 2 (Homo sapiens, UniProt P34972)
Sequence (P34972 whole entry): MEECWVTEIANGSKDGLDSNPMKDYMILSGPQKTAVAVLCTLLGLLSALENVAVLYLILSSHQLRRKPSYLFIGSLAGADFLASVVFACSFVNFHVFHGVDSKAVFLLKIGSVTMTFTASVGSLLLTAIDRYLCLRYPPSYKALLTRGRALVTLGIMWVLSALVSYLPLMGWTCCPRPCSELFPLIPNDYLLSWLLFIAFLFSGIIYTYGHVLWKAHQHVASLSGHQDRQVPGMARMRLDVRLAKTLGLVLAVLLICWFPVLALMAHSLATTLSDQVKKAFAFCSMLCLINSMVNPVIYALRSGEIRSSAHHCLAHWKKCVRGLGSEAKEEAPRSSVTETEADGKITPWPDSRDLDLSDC
Class membership depends on Ki alone; the intervals are bucket 1 (below 900 nM), bucket 2 (900 nM to below 2000 nM), bucket 3 (2000 nM or more)

[Q] Record `CCCCCCc1ccc(OCCCCCCCCCCOC(CO)CO)cc1O` — which class?
[A] bucket 3

[Q] Note, next up: `CCCCCCC(C)(C)c1cc(O)cc(OCCCCCCOC(CO)CO)c1`
[A] bucket 1

[Q] Note, next up: `CCCCCCC(C)(C)c1cc(O)cc(OCCCCCCCC(=O)OC(CO)CO)c1`
[A] bucket 1

[Q] Note, next up: `CCCCCCc1ccc(OCCCCCCCC(=O)OC(CO)CO)cc1O`
[A] bucket 3

[Q] Note, next up: `CCCCCc1cc(O)cc(OCCCCCCCCCCCCOC(CO)CO)c1`
[A] bucket 3

[Q] Note, next up: `CCCCCc1cc(O)cc(OCCCCCCCCCCC(=O)OC(CO)CO)c1`
[A] bucket 1

[Q] Note, next up: `CCCCCc1cc(O)cc(OCCCCCCCCOC(CO)CO)c1`
[A] bucket 2

[Q] Note, next up: CCCCCCc1ccc(OCCCCCCCCCCC(=O)OCC(O)CO)cc1O (stereo unspecified)
[A] bucket 3

[Q] Note, next up: `CCCCCCC(C)(C)c1cc(O)cc(OCCCCCCCCCCCCOC(CO)CO)c1`
[A] bucket 2

[Q] Note, next up: `CCCCCCc1ccc(O)cc1OCCCCCCCCCCC(=O)OC(CO)CO`
[A] bucket 2

[Q] Note, next up: CCCCCCC(C)(C)c1cc(O)cc(OCCCCCCCCCCC(=O)OCC(O)CO)c1 (stereo unspecified)
[A] bucket 1
